# Tested on: DENV-2 strain 16681
# test-name: Tetravalent RT-qPCR assay, serotype 2
# Type: cell-based, Dengue virus
# condition-label: RT-qPCR serotype 2 16681
# Description: The antiviral activity of the compounds of the invention was tested against DENV-1 strain TC974#666 (NCPV), DENV-2 strain 16681, DENV-3 strain H87 (NCPV) and DENV-4 strain H241 (NCPV) in a RT-qPCR assay. Therefore, Vero cells were infected with either DENV-1, or -2, or -3, or -4 in the presence or absence of test compounds. […] In addition, CC50 values are determined based on the Cp values acquired for the housekeeping gene β-actin. […]
endpoint-name: SI
Number only, please.

# molecule, endpoint-name, measured-number
records = [
    ("COc1cc(NC(C(=O)N2CCc3ccc(C(F)(F)F)cc32)c2ccc(Cl)cc2OCCO)cc(S(C)(=O)=O)c1 (single isomer, unassigned)", "SI", 11700),
]

[in] Supply recorded SI for COc1cc(NC(C(=O)N2CCc3cc(OC)c(C(F)(F)F)cc32)c2ccc(F)cc2OCCO)cc(S(C)(=O)=O)c1 (single isomer, unassigned) here.
[out] 4910

----------
Each entry below carries its recorded SI.
# Test system: DENV-2 strain 16681
# test-name: Tetravalent RT-qPCR assay, serotype 2
# Type: cell-based, Dengue virus
# condition-label: RT-qPCR serotype 2 16681
Number only, please.

Here's what some known entries look like.
# compound, endpoint-name, measured-number
data = [
    ("COc1cc(NC(C(=O)N2CCc3ccc(C(F)(F)F)cc32)c2ccc(F)cc2OCCO)cc(S(C)(=O)=O)c1 (single isomer, unassigned)", "SI", 4670),
    ("COc1cc(NC(C(=O)N2CCc3cc(OC)c(C(F)(F)F)cc32)c2ccc(Cl)cc2OCCCC(=O)O)cc(S(C)(=O)=O)c1 (single isomer, unassigned)", "SI", 54300),
]

Would you kindly look at the next entry?
[in] Supply recorded SI for COc1cc(NC(C(=O)N2CCc3ccc(OC(F)(F)F)cc32)c2ccc(F)cc2OCCO)cc(S(C)(=O)=O)c1 (single isomer, unassigned) here.
[out] 4760

----------
# System: Vero cells
# condition-label: African green monkey
endpoint-name: CC50 (µM)
Could you give me the number in µM? Just the number is fine.

# compound, unit-annotation, CC50
rows = [
    ("COc1cc(NC(C(=O)N2CCc3cc(OC)c(C(F)(F)F)cc32)c2ccc(Cl)cc2OCCCC(=O)O)cc(S(C)(=O)=O)c1 (single isomer, unassigned)", "µM", 14),
]

[in] Report the value of CC50 obtained on Vero cells for COc1cc(NC(C(=O)N2CCc3ccc(C(F)(F)F)cc32)c2ccc(Cl)cc2OCCO)cc(S(C)(=O)=O)c1 (single isomer, unassigned) .
[out] 11

[in] Report the value of CC50 obtained on Vero cells for COc1cc(NC(C(=O)N2CCc3ccc(C(F)(F)F)cc32)c2ccc(Cl)cc2OCCCC(=O)O)cc(S(C)(=O)=O)c1 (single isomer, unassigned) .
[out] 11

[in] Report the value of CC50 obtained on Vero cells for COc1cc(NC(C(=O)N2CCc3ccc(OC(F)(F)F)cc32)c2ccc(F)cc2OCCO)cc(S(C)(=O)=O)c1 (single isomer, unassigned) .
[out] 8.7

[in] Report the value of CC50 obtained on Vero cells for COc1cc(NC(C(=O)N2CCc3ccc(OC(F)(F)F)cc32)c2ccc(Cl)cc2OCCO)cc(S(C)(=O)=O)c1 (single isomer, unassigned) .
[out] 10
